Record form. Attribute: IC50. Fill in for each entry.
Tested on: Plasmodium falciparum
Assay: Antiplasmodial activity against CQ-resistant Plasmodium falciparum K1
Assay type: functional, organism-based
Answers are plain numbers, in nM.

Worked cases, IC50 given:
[
  {
    "SUBSTANCE SMILES": "C[C@H]1[C@@H](OCc2cccc(C(=O)N(CCCCNc3ccnc4cc(Cl)ccc34)CC(=O)NC3CCCCC3)c2)O[C@@H]2O[C@@]3(C)CC[C@H]4[C@H](C)CC[C@@H]1[C@@]24OO3",
    "IC50 / nM": 19
  },
  {
    "SUBSTANCE SMILES": "CCCN1CNc2cc(Nc3ccnc4cc(Cl)ccc34)ccc2C1",
    "IC50 / nM": 220
  },
  {
    "SUBSTANCE SMILES": "O=C(N[C@H](c1ccccc1)[C@H](O)C(=O)NCc1cn(-c2ccccc2Nc2ccnc3cc(Cl)ccc23)nn1)c1ccccc1",
    "IC50 / nM": 390
  },
  {
    "SUBSTANCE SMILES": "C[C@H]1[C@@H](OCc2ccc(C(=O)N(CCNc3ccnc4cc(Cl)ccc34)CC(=O)NC(C)(C)C)cc2)O[C@@H]2O[C@@]3(C)CC[C@H]4[C@H](C)CC[C@@H]1[C@@]24OO3",
    "IC50 / nM": 19
  },
  {
    "SUBSTANCE SMILES": "Clc1ccc2c(Nc3ccc4c(c3)NCN(Cc3ccccc3)C4)ccnc2c1",
    "IC50 / nM": 220
  }
]

Entry `O=C(N[C@H](c1ccccc1)[C@H](O)C(=O)NCc1cn(-c2cccc(Nc3ccnc4cc(Cl)ccc34)c2)nn1)c1ccccc1` , IC50 reported as 390
